- testProtocol: clinical
- experimentalParameters: human, in vivo, iv, Vdss
Square brackets hold non-standard residues; d marks the D form. Peptide text beside a SMILES is read from it. dPhe(4-Cl) = N[C@H](Cc1ccc(Cl)cc1)C(=O)O; d2Nal = N[C@H](Cc1ccc2ccccc2c1)C(=O)O; dCit = NC(=O)NCCC[C@@H](N)C(=O)O; d3Pal = N[C@H](Cc1cccnc1)C(=O)O
Vd values, listed per item

compound	unitsOfMeasure	Vd
CCCC(C)(COC(N)=O)COC(N)=O [MEPROBAMATE]	L/kg	0.7
CC(=O)N[C@H](Cc1ccc2ccccc2c1)C(=O)N[C@H](Cc1ccc(Cl)cc1)C(=O)N[C@H](Cc1cccnc1)C(=O)N[C@@H](CO)C(=O)N[C@@H](Cc1ccc(O)cc1)C(=O)N[C@H](CCCNC(N)=O)C(=O)N[C@@H](CC(C)C)C(=O)N[C@@H](CCCNC(=N)N)C(=O)N1CCC[C@H]1C(=O)N[C@H](C)C(N)=O [CETRORELIX] (Ac-[d2Nal][dPhe(4-Cl)][d3Pal]SY[dCit]LRP[dA]-NH2)	L/kg	0.39
CCOc1cc(CC(=O)N[C@@H](CC(C)C)c2ccccc2N2CCCCC2)ccc1C(=O)O [REPAGLINIDE]	L/kg	0.35
Cc1cccc(C)c1NC(=O)C(C)N (centres undefined) [TOCAINIDE]	L/kg	1.8
CNS(=O)(=O)Cc1ccc2[nH]cc(CCN(C)C)c2c1	L/kg	1.7
O=C(O)[C@@H]1C[C@@H](C2CCCCC2)CN1C(=O)CP(=O)(O)CCCCc1ccccc1	L/kg	0.13
O=C([O-])[O-].[Li+].[Li+] [LITHIUM CARBONATE]	L/kg	0.62
Oc1ccc2c(c1)[C@@]13CCCC[C@@]1(O)[C@@H](C2)N(CC1CCC1)CC3	L/kg	12
O=C(O[C@@H]1C[C@@H]2C[C@H]3C[C@H](C1)N2CC3=O)c1c[nH]c2ccccc12	L/kg	2

---

- testProtocol: clinical
- experimentalParameters: human, in vivo, iv, t1/2
half-life values, listed per item

compound	half-life, h
CN(C)C(=O)Oc1ccc[n+](C)c1	1.5
CN1C(=O)[C@H](O)C[C@H]1c1cccnc1	5.9
N=C(N)NC(=O)Cc1c(Cl)cccc1Cl	15
CN(C)C(=N)N=C(N)N	1.7
CN1CC[C@]23c4c5ccc(O)c4O[C@H]2[C@@H](O[C@@H]2O[C@H](C(=O)O)[C@@H](O)[C@H](O)[C@H]2O)C=C[C@H]3[C@H]1C5 [MORPHINE GLUCURONIDE]	1.4
CN(C)CCCN1c2ccccc2CCc2cc(O)ccc21 [2-HYDROXYIMIPRAMINE]	10
CC1(C)S[C@@H]2[C@H](NC(=O)C(C(=O)O)c3ccccc3)C(=O)N2[C@H]1C(=O)O (some centres not stated)	1.1
CCCC(=O)N1CCCN(c2nc(N)c3cc(OC)c(OC)cc3n2)CC1	2
COc1ccc(C[C@@H]2c3cc(OC)c(OC)cc3CC[N@+]2(C)CCC(=O)OCCCCCOC(=O)CC[N@@+]2(C)CCc3cc(OC)c(OC)cc3[C@H]2Cc2ccc(OC)c(OC)c2)cc1OC	0.42
CCOc1ccc(/C=C2\NCCc3cc(OCC)c(OCC)cc32)cc1OCC	9.3
NCCCNc1ccc2c(CNCCO)nn3c4c(O)ccc(O)c4c(=O)c1c23	32
Nc1ccn([C@@H]2O[C@H](CO)[C@@H](O)C2(F)F)c(=O)n1	1
Cc1cc(=O)n(-c2ccccc2)n1C [ANTIPYRINE]	12
CNS(=O)(=O)CCc1ccc2[nH]cc(C3CCN(C)CC3)c2c1	6.6
CCCC(=O)OCOC(=O)C1=C(C)NC(C)=C(C(=O)OC)C1c1cccc(Cl)c1Cl (configuration not stated)	0.3
Clc1ccc2nsnc2c1NC1=NCCN1	2.4
O=C1CCC(N2C(=O)c3ccccc3C2=O)C(=O)N1 (configuration not stated) [THALIDOMIDE]	4.7
CC(C)c1cccc(C(C)C)c1O	3.2
CN(C)/N=N/c1ccc(C(=O)O)cc1	2.5
CC/C=C\C/C=C\C/C=C\C/C=C\C/C=C\C/C=C/CCC(=O)O[C@@H](C(=O)O[C@H]1C[C@@]2(O)[C@@H](OC(=O)c3ccccc3)C3[C@](C)(C(=O)[C@H](OC(C)=O)C(=C1C)C2(C)C)[C@@H](O)C[C@H]1OC[C@@]31OC(C)=O)[C@@H](NC(=O)c1ccccc1)c1ccccc1 (some centres not stated)	60
Nc1nc(/C(=N/O)C(=O)N[C@@H]2C(=O)N3C(C(=O)O)=C(/C=C4\CCN([C@@H]5CCNC5)C4=O)CS[C@H]23)ns1	3.3
C=CC[C@@H]1/C=C(\C)C[C@H](C)C[C@H](OC)[C@H]2O[C@@](O)(C(=O)C(=O)N3CCCC[C@H]3C(=O)O[C@H](/C(C)=C/[C@@H]3CC[C@@H](O)[C@H](OC)C3)[C@H](C)[C@@H](O)CC1=O)[C@H](C)C[C@@H]2OC [TACROLIMUS ANHYDROUS]	26
CC(=O)O[C@H]1C[C@@H]2CC[C@@H]3[C@H](CC[C@@]4(C)[C@H]3C[C@H]([N+]3(C)CCCCC3)[C@@H]4OC(C)=O)[C@@]2(C)C[C@@H]1[N+]1(C)CCCCC1	1.9
C[C@H](/C=C/[C@H](C)C(C)(C)O)[C@H]1CC[C@H]2/C(=C/C=C3C[C@@H](O)C[C@H](O)C3)CCC[C@]12C	5.3
Cc1nccn1CC1CCc2c(c3ccccc3n2C)C1=O (configuration not stated)	3.4
C[C@]12CC[C@@H]3c4ccc(OC(=O)N(CCCl)CCCl)cc4CC[C@H]3[C@@H]1CC[C@@H]2OP(=O)(O)O [ESTRAMUSTINE PHOSPHATE]	2.4
Nc1nc(F)nc2c1ncn2[C@@H]1O[C@H](CO)[C@@H](O)[C@@H]1O	11
CN(C)CCC=C1c2ccccc2COc2ccccc21 [DOXEPIN]	15
CN(C(=O)c1c(O)c2ccccc2n(C)c1=O)c1ccccc1	31
CC(=O)Nc1nnc(S(N)(=O)=O)s1 [ACETAZOLAMIDE]	13
CN(C)[C@@H]1C(O)=C(C(N)=O)C(=O)[C@@]2(O)C(O)=C3C(=O)c4c(O)ccc(Cl)c4[C@@H](O)[C@H]3C[C@@H]12	12
C#C[C@]1(O)CC[C@H]2[C@@H]3CCC4=CC(=O)CC[C@@H]4[C@H]3CC[C@@]21CC	9.4

Ref: ChEMBL document CHEMBL1614632
